PROTOCOL_TEXT: MTS cell viability assay, M10
Type: cell-based
MEASUREMENT_PARAMETERS: human, M10 normal human mammary epithelial cells; M10, TP4 10.0 μg/mL, 3 h, mean±SD; read-out: Cellular toxicity (cell viability), MTS assay
Where no end group is shown, it is not given here.
EXPERIMENTAL_ENDPOINT: viability at 3 h, 10 μg/mL (%)
Provide only the numeric value, understood in %.

Query string: Endpoint output: viability at 3 h, 10 μg/mL of FIHHIIGGLFSAGKAIHRLIRRRRR [TP4, tilapia piscidin 4] . Value?
Result string: 90.8

====

PROTOCOL_TEXT: MTS cell viability assay, HDF
Type: cell-based
MEASUREMENT_PARAMETERS: human, HDF dermal fibroblasts, TP4 5.0 μg/mL, 3 h, mean±SD, read-out: Cellular toxicity (cell viability), MTS assay
Where no end group is shown, it is not given here.
EXPERIMENTAL_ENDPOINT: viability at 3 h, 5 μg/mL (%)
Give the number; % is assumed, so skip it.

Query string: Consider the sequence shown here: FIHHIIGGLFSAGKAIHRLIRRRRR [TP4, tilapia piscidin 4] What is its recorded viability at 3 h, 5 μg/mL?
Result string: 103

This collection of values is drawn from patent US10232013B2.
